- MEASURED TARGET: Human immunodeficiency virus type 1 reverse transcriptase (Human immunodeficiency virus 1) (UniProt Q72547)
- TEST PROTOCOL: Inhibition of HIV1 reverse transcriptase assessed as reduction in [3H]dTTP incorporation by measuring proportional residual activity ratio at 20 uM using poly(rA)/oligo(dT) as template/primer after 30 mins by scintillation counting method relative to control
Where a SMILES comes first, the peptide text is derived from it. Bridges are numbered along the chain shown (N, C = ends). [ ]: non-standard residue; d: D form. The star is where a group is joined. ξ: configuration not given here. Quinoxaline2carbonyl = O=C(c1cnc2ccccc2n1)*; ξDap = NCC(N)C(=O)O
READOUT KIND: Ratio
Answer with a number only.

Example entries and their recorded answers appear below.
- NCC1NC(=O)C[C@@H](C(N)=O)NC(=O)C(CNC(=O)c2cnc3ccccc3n2)NC(=O)CNC(=O)CNC(=O)CNC(=O)C(CNC(=O)c2cnc3ccccc3n2)NC1=O (stereo partly drawn) ([ξDap][ξDap](Quinoxaline2carbonyl)GGG[ξDap](Quinoxaline2carbonyl)D-NH2; lactam N-7): 0.09
- NCC1NC(=O)C[C@@H](C(N)=O)NC(=O)CNC(=O)CNC(=O)CNC(=O)C(CNC(=O)c2cnc3ccccc3n2)NC(=O)C(CNC(=O)c2cnc3ccccc3n2)NC1=O (some centres undefined) ([ξDap][ξDap](Quinoxaline2carbonyl)[ξDap](Quinoxaline2carbonyl)GGGD-NH2; lactam N-7): 0.3
- NCC1NC(=O)C[C@@H](C(N)=O)NC(=O)CNC(=O)CNC(=O)C(CNC(=O)c2cnc3ccccc3n2)NC(=O)CNC(=O)CNC1=O (some centres undefined) ([ξDap]GG[ξDap](Quinoxaline2carbonyl)GGD-NH2; lactam N-7): 0.66

Please turn your attention to the following entry.
Give me measured Ratio, please, for this compound: NCC1NC(=O)C[C@@H](C(N)=O)NC(=O)CNC(=O)C(CNC(=O)c2cnc3ccccc3n2)NC(=O)C(CNC(=O)c2cnc3ccccc3n2)NC(=O)CNC(=O)C(CNC(=O)c2cnc3ccccc3n2)NC1=O (some centres undefined) ([ξDap][ξDap](Quinoxaline2carbonyl)G[ξDap](Quinoxaline2carbonyl)[ξDap](Quinoxaline2carbonyl)GD-NH2; lactam N-7)
0.09
